Molecular target: OsSMF1 (Oryza sativa, UniProt Q6ZLB0 1-436)
Sequence: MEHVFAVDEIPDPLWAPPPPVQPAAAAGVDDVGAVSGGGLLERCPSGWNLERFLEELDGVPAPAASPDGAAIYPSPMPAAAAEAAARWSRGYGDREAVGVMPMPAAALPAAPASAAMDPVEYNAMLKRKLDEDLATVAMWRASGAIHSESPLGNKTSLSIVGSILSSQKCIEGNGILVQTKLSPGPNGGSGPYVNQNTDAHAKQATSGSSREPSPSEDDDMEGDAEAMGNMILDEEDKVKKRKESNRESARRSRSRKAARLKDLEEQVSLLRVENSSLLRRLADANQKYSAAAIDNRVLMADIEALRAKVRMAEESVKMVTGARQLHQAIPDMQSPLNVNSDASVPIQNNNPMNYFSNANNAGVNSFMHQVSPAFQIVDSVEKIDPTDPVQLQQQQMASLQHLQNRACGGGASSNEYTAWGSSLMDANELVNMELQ
Assay: protein-binding microarray (RPBM); PBS, 2% BSA, 51.3 ng/ul salmon testes DNA, 50 uM zinc acetate, 200 nM TF, 25 C, 1 h; high values mean tight binding
Conditions: protein: recombinant; tags: N-terminal polyhistidine and DsRed monomer fusion (pET32a); chain copies: 2; label: CyDye5-dUTP incorporated in the synthesized complementary strand; 3' TTTTT single-stranded linker to array surface; dsDNA, one strand shown
The full ranking holds about 39,000 sequences; the median of “fluorescence intensity (a.u.)” is about 4,300, and the highest 2% start at about 39,000. The sample as a whole holds a higher share of the highest values than the screen did.
observed_property: binding signal

biosequence: GCCAACGAGGTCGCGTTCGACAAGGTGAAGGACGCCGGCGCGGAGTCACCTAGTGCAG
result: 39600 fluorescence intensity (a.u.)
//
biosequence: ACCAACAAGGTCGTCGCCGACGACGCCGACGCCGACGCCGCGGAGTCACCTAGTGCAG
result: 27600 fluorescence intensity (a.u.)
//
biosequence: TCACGAACTGTGTACCGGATGCCACGTCACACAGTTGTCTCGGAGTCACCTAGTGCAG
result: 41200 fluorescence intensity (a.u.)
//
biosequence: TGAGAGGTCTACATCATTACATGTCAAGACAAGACTACCACGGAGTCACCTAGTGCAG
result: 4540 fluorescence intensity (a.u.)
//
biosequence: ATGCAGCCACACGGATGTTGGACGTCATTGTCTATAGTGTCGGAGTCACCTAGTGCAG
result: 4580 fluorescence intensity (a.u.)

Tested on OsSMF1 (Oryza sativa, UniProt Q6ZLB0 1-436): GCACATGACTGTGCAAACGCTGTTCCTGATCTGAGTAAGACGGAGTCACCTAGTGCAG . Observed binding signal: 4170 fluorescence intensity (a.u.)

Tested on OsSMF1 (Oryza sativa, UniProt Q6ZLB0 1-436): CCAGCATCGCCGGCAGATCCACGTCGAGCATCGCGGCAGGCGGAGTCACCTAGTGCAG . Observed binding signal: 5190 fluorescence intensity (a.u.)

Tested on OsSMF1 (Oryza sativa, UniProt Q6ZLB0 1-436): TCATCCCCTGATCGTCATCAGCATTCTCACCGTCGGCGCTCGGAGTCACCTAGTGCAG . Observed binding signal: 4690 fluorescence intensity (a.u.)

Tested on OsSMF1 (Oryza sativa, UniProt Q6ZLB0 1-436): CTGTCCATTGATCTGTCCCTGGCAGCGACGTGACGTCCCACGGAGTCACCTAGTGCAG . Observed binding signal: 4890 fluorescence intensity (a.u.)

Tested on OsSMF1 (Oryza sativa, UniProt Q6ZLB0 1-436): CGTGCACGTGTTCACCGGAGGTGCTCGTCAGCAAAGCAGGCGGAGTCACCTAGTGCAG . Observed binding signal: 6000 fluorescence intensity (a.u.)

Tested on OsSMF1 (Oryza sativa, UniProt Q6ZLB0 1-436): GCTAGCACTCGCCTCCCTCTGCGCCCACGCCACGCTGTGGCGGAGTCACCTAGTGCAG . Observed binding signal: 4110 fluorescence intensity (a.u.)

Tested on OsSMF1 (Oryza sativa, UniProt Q6ZLB0 1-436): TGAACATGCCCATTGTTACTCATTCCTAATACTATAGGAACGGAGTCACCTAGTGCAG . Observed binding signal: 42200 fluorescence intensity (a.u.)

Tested on OsSMF1 (Oryza sativa, UniProt Q6ZLB0 1-436): ACGTTCCACTCGCGCGCCTCCACGTCAGCACCCACTGTGGCGGAGTCACCTAGTGCAG . Observed binding signal: 42300 fluorescence intensity (a.u.)

Tested on OsSMF1 (Oryza sativa, UniProt Q6ZLB0 1-436): CGGCGTGGCCGCTGCGTCACGGGCGACTGCGCCAGCGTGCCGGAGTCACCTAGTGCAG . Observed binding signal: 5890 fluorescence intensity (a.u.)

---

Molecular target: OsSMF1 (Oryza sativa, UniProt Q6ZLB0 1-436)
Sequence: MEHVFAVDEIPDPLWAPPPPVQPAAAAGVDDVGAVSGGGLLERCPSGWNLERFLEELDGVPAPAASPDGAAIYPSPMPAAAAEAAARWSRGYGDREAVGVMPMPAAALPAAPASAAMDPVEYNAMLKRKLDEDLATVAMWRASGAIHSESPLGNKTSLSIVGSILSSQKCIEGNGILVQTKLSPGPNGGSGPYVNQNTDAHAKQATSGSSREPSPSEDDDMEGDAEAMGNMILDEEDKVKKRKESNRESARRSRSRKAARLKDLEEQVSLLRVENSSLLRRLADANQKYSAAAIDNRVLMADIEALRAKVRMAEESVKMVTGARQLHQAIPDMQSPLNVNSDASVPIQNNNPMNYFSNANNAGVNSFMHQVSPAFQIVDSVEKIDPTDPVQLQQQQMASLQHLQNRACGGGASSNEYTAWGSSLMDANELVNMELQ
Test: protein-binding microarray (RPBM); PBS, 2% BSA, 51.3 ng/ul salmon testes DNA, 50 uM zinc acetate, 200 nM TF, 25 C, 1 h; high values mean tight binding
Conditions: protein: recombinant; tags: N-terminal polyhistidine and DsRed monomer fusion (pET32a); chain copies: 2; label: CyDye5-dUTP incorporated in the synthesized complementary strand; 3' TTTTT single-stranded linker to array surface; dsDNA, one strand shown
In all, about 39,000 sequences were measured (“fluorescence intensity (a.u.)”: median about 4,300, highest 2% from about 39,000 on). The list comes from a sample in which the highest values are over-represented; it also holds close analogues and randomly drawn sequences.
observed_property: binding signal

biosequence: ATATGTGCTGGCCGCTGAGGTATACAGTATATGGGCCAACCGGAGTCACCTAGTGCAG
observed_property: binding signal
result: 3580 fluorescence intensity (a.u.)
//
biosequence: AATGTAAGTCATTCTAGCATTTCTCATTAACATCAATATGCGGAGTCACCTAGTGCAG
observed_property: binding signal
result: 3240 fluorescence intensity (a.u.)
//
biosequence: TAGAGGCAAGCACGACCAATGAGGACATAGGGAATGGTTCCGGAGTCACCTAGTGCAG
observed_property: binding signal
result: 9700 fluorescence intensity (a.u.)

Proceed to the following item.
Tested on OsSMF1 (Oryza sativa, UniProt Q6ZLB0 1-436): GTGAGAACTGAGAGGAGCGTCGGAAGAAGACCGGAAGAAGCGGAGTCACCTAGTGCAG . Observed binding signal: 4580 fluorescence intensity (a.u.)

---

Biological target: OsSMF1 (Oryza sativa, UniProt Q6ZLB0 1-436)
Sequence: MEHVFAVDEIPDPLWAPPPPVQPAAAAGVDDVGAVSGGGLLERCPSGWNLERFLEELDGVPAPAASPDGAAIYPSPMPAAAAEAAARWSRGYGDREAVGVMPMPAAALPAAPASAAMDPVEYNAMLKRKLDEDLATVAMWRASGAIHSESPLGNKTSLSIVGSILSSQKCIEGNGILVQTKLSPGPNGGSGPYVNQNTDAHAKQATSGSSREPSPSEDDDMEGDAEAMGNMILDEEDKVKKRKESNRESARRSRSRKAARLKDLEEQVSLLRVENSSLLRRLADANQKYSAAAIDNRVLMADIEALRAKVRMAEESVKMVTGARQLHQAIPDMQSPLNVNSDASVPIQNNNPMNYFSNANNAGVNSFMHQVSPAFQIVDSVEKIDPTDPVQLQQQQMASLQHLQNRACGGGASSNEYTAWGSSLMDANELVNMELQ
Assay: protein-binding microarray (RPBM); PBS, 2% BSA, 51.3 ng/ul salmon testes DNA, 50 uM zinc acetate, 200 nM TF, 25 C, 1 h; high values mean tight binding
Settings: protein: recombinant; tags: N-terminal polyhistidine and DsRed monomer fusion (pET32a); chain copies: 2; label: CyDye5-dUTP incorporated in the synthesized complementary strand; 3' TTTTT single-stranded linker to array surface; dsDNA, one strand shown
The full ranking holds about 39,000 sequences; the median of “fluorescence intensity (a.u.)” is about 4,300, and the highest 2% start at about 39,000. Many of the other results were omitted from the sample, so the highest values are more common in it than they were.
observed_property: binding signal

biosequence: GTTTTGGAGGGCGGTTTTGCTGACGTGGCGCTGACATGGCCGGAGTCACCTAGTGCAG
result: 32800 fluorescence intensity (a.u.)

biosequence: CTCTCCCAGCGGTAATGGAGGGCGGTTTTGCTGACGTGGCCGGAGTCACCTAGTGCAG
result: 58300 fluorescence intensity (a.u.)

biosequence: ATCGATCGATCAATTGGCCAAGGCGGCAAACGGCGGCGGCCGGAGTCACCTAGTGCAG
result: 4060 fluorescence intensity (a.u.)

biosequence: ACATGGACTGTGGTGTGGTACACACACGGTATGTCAGAGCCGGAGTCACCTAGTGCAG
result: 3220 fluorescence intensity (a.u.)

biosequence: GCAACCGCGACGACCGATCCACGTGGCACCACCTCATTGGCGGAGTCACCTAGTGCAG
result: 29400 fluorescence intensity (a.u.)

biosequence: CGAAAATGATCTGACACTTATTCGAAAGCAACGTCACAAGCGGAGTCACCTAGTGCAG
result: 4300 fluorescence intensity (a.u.)

biosequence: GCGGTAGCCAAGCCTGCCACGTCAGCTCTCGCGCAACGTCCGGAGTCACCTAGTGCAG
result: 34600 fluorescence intensity (a.u.)

So, GTGTGAGGTTCATGCTGGGCGGTGACGCGACGGCGGAGACCGGAGTCACCTAGTGCAG ? Its binding signal was 6730 fluorescence intensity (a.u.)
